Biological target: human CCR6 (Homo sapiens, UniProt P51684)
Construct: expressed in transfected cells; host or cells: HEK-293
Sequence (P51684 1-374): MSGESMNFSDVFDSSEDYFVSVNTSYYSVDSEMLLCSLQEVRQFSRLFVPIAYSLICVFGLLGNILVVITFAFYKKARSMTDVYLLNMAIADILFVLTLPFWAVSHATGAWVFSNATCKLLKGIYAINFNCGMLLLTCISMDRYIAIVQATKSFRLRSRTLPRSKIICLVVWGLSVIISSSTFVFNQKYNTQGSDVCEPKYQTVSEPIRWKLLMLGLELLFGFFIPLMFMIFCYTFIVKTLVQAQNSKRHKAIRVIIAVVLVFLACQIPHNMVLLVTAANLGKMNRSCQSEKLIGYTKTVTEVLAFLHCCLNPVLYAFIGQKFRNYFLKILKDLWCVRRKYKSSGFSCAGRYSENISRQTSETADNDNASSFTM
Test: FLIPR assay (inhibition of CCL20-induced calcium signal)
Format: cell-based
Settings: HEK-293 cells expressing human CCR6; mean values where determined several times; read-out: FLIPR IC50
Observable: IC50 (nM)

Compound | IC50 [nM]
CC(C)c1ccc([C@](O)(c2cncc(N3CC4(CCCC4)OC3=O)c2)C2(C)CN(C)C2)cc1 | 70.8

[I] CC(C)c1ccc([C@](O)(c2cncc(N3CCC(C4CCOCC4)C3=O)c2)C2(C)CN(C)C2)cc1 (stereo partly shown)
[II] CC(C)c1ccc([C@](O)(c2cncc(CCC3(O)CN(C(=O)OC(C)(C)C)C3)c2)C2(C)CN(C)C2)cc1
Which gives the smaller IC50 number: I or II ? When you have decided, please share the label of that item.
II
(II: 65.8 nM, I: 184 nM)

[P] CC(C)c1ccc([C@](O)(c2cncc(-c3noc(C4CCC(=O)N4c4ccccc4)n3)c2)C2(C)CN(C)C2)cc1 (stereo partly shown)
[Q] Cc1coc(-c2cncc([C@@](O)(c3ccc(C(C)C)cc3)C3(C)CN(C)C3)c2)n1
[R] Cc1nccc(C(C)(O)C#Cc2cncc([C@@](O)(c3ccc(C(C)C)cc3)C3(C)CN(C)C3)c2)n1 (stereo partly shown)
List from greatest to least IC50. API: response body holds the labels in the requested order.
R, Q, P
